tested on: SK-MEL-2 melanoma; experiment: NCI tumour cell line growth inhibition, 48 h
Would you mind telling me the reported TGI of each entry?

Response field TGI (SK-MEL-2 melanoma) for item `Cc1ccc(S(=O)(=O)NC(=O)NCCC(=O)O)cc1` : > 100 µM

SK-MEL-2 melanoma TGI of O=c1[nH]c(=O)n(C2CC(O)C(CO)O2)cc1C(OCC(F)(F)F)OCC(F)(F)F (stereo not given) is > 100 µM

// assay SK-MEL-2 melanoma, entry `Cc1cc(=O)n2nc(CSc3nnc(N)s3)sc2n1` , TGI value = > 100 µM

Case `O=C1c2ccccc2-c2nccc3cc(Cl)nc1c23` , SK-MEL-2 melanoma, TGI recorded as 7.28 µM

Case `CCOC(=O)CCc1c(C(=O)OCC)[nH]c(/C=C2\NC(=O)C(C)=C2CC)c1C` , SK-MEL-2 melanoma, TGI recorded as 42.5 µM

Considering `COc1ccc2c(c1)nc1n2C(N)=Nc2ccccc2S1` , its TGI with SK-MEL-2 melanoma was recorded as > 100 µM

`Cc1ccc(C)c(COCCOCn2cc(Br)c(N)nc2=O)c1` tested on SK-MEL-2 melanoma gave TGI: > 100 µM

Given the compound CC(=O)O[C@H]1CC[C@@]2(C)C(CC[C@]3(C)C2CC[C@]2(C)Oc4c(C)cc(O)cc4C[C@@H]23)C1(C)C (stereo not given in full) and test system SK-MEL-2 melanoma, the measured TGI is 21.4 µM

Reported TGI (SK-MEL-2 melanoma) for entry `CC(C)[C@H]1NC(=O)[C@H]2N=C(O[C@@H]2C)[C@@H]2CCCN2C(=O)[C@H](Cc2ccccc2)NC(=O)[C@@H]2CSC(=N2)[C@@H](Cc2ccccc2)NC(=O)[C@@H]2CSC1=N2` is > 100 µM

Record [N-]=[N+]=NC1CC(n2cc(COCC(F)(F)F)c(=O)[nH]c2=O)OC1CO (stereo not given) has SK-MEL-2 melanoma TGI equal to > 100 µM

Reported SK-MEL-2 melanoma TGI for item `CN(C)/C=C/c1nnnn1-c1ccc(Cl)cc1` was > 100 µM

Test item O=c1[nH]cnc2c1nnn2C1OC(CO)C(O)C1O (stereo not given) ; SK-MEL-2 melanoma; reported TGI was > 100 µM

Lab entry: SK-MEL-2 melanoma assay, compound `O=C(NNc1cn[nH]c(=O)c1Cl)/C(=C/c1ccc2c(c1)OCO2)NC(=O)c1ccccc1` , TGI = > 100 µM

Response field TGI (SK-MEL-2 melanoma) for item `NCCNCCCCCCNC(=O)c1cccc2cc3ccccc3nc12` : 10.2 µM

// returns TGI for `S=C1C(=Nc2ccccc2)N(c2ccccc2)/C(=N\c2ccccn2)N1c1ccccc1` with SK-MEL-2 melanoma; value = 24.6 µM

The compound `O=c1[nH]c(=O)n(COCc2ccccc2)c2ccc([N+](=O)[O-])cc12` on SK-MEL-2 melanoma: TGI was > 100 µM

Measured TGI (SK-MEL-2 melanoma), entry `COc1c(OC)c(O)c2c(=O)c(OC)c(-c3ccc4c(c3)OCO4)oc2c1O` : > 100 µM

Lab entry: SK-MEL-2 melanoma assay, compound `CCCCCCOc1ccc(/C=N/NC(N)=S)cc1` , TGI = > 49.9 µM

Param item: O=C(OCCN1CCCCC1)C(c1ccccc1)C1(O)CCSCC1 (stereo not given) ; param system: SK-MEL-2 melanoma; output TGI: > 100 µM

Response field TGI (SK-MEL-2 melanoma) for item NC(c1ccccc1)(C(F)(F)F)P1(=O)OC(=O)c2ccccc2O1 (stereo not given) : > 100 µM

Measured TGI (SK-MEL-2 melanoma), entry `C=C1C(=O)O[C@H]2[C@H]1CC/C(CNC(=O)/C=C/c1cccc(OC)c1)=C\CC[C@@]1(C)O[C@@H]21` : 3.31 µM

Sample `COC(=O)/C=C\C(C#N)(C#N)N=Cc1ccc(C)s1` , system: SK-MEL-2 melanoma. Its TGI is 20.5 µM

Observed TGI, SK-MEL-2 melanoma, `CNc1nc(C)c(-c2nc(Nc3cccc(S(N)(=O)=O)c3)ncc2F)s1` : 0.0939 µM

Given the compound `CS(=O)(=O)OCCN1CCN(C(=O)c2cccc3c(Nc4ccc(S(N)(=O)=O)cc4)c4ccccc4nc23)CC1` and test system SK-MEL-2 melanoma, the measured TGI is > 100 µM

Query CCCC(CC)c1c(O)c(O)c(C(CC)CCC)c(C(CC)CCC)c1C(CC)CCC (stereo not given) on SK-MEL-2 melanoma; TGI returned: > 10 µM

###

Exercise: state measured TGI for each of the compounds provided.
tested on: UACC-62 melanoma; experiment: NCI tumour cell line growth inhibition, 48 h
Provide only the numeric value, understood in µM.

Consider `C=CC(C)(C)N[C@@H](C(=O)N1CCC[C@H]1c1nc(-c2nc(C(=O)OCC=C(C)C)c(C)o2)c(C)o1)C(C)C` . Its measured TGI is 38.6

// TGI value for `CCN(CC)CC(=O)/C=C/c1ccc(C)cc1` : 32.5

Entry `CC(=O)OCc1cc(=O)n(C)c2c3c4c(cc12)c(C)cc(=O)n4CO3` ; TGI = 3.58

###

tested on: RPMI-8226 leukemia; assay: NCI tumour cell line growth inhibition, 48 h; in the data active = GI50 below about 0.43 µM; inactive = the rest
Tick one outcome: active, inactive

Name the outcome recorded for O=S1(=O)N(Cc2ccccc2)[C@@H](Cc2ccccc2)C2O[C@H]2[C@H](Cc2ccccc2)N1Cc1ccccc1 (stereo partly drawn) in the assay.
inactive

Dear all, I need the recorded test outcome for `CCOC(=O)c1cc2c(n1Cc1cc(OC)cc(OC)c1)-c1oncc1CCC2` , thank you.
active

Assay outcome for `COc1cc2c(cc1OCCCOC1=C=C=C(c3ccc4c(c3)c3cc(-c5ccc(OCCCOc6cc7c(cc6OC)C(=O)N6CCC[C@H]6C=N7)cc5)ccc3n4S(=O)(=O)c3ccc(C)cc3)C=C1)N=C[C@@H]1CCCN1C2=O` : what was it?
inactive

Which result was noted for this compound in the test: `CCN(CC)c1ccc(N=C2C=C(C(=O)Nc3ccc(S(C)(=O)=O)cc3)C(=O)c3ccccc32)c(C)c1`
inactive

In this assay, the call recorded for `CNc1nc(C)c(-c2nc(Nc3cccc(S(N)(=O)=O)c3)ncc2F)s1` was what?
active

How was NC(=O)C(Br)CBr (stereo not drawn) classified in this test?
inactive

Hi, sorry to bother you, what did the test record for `C[C@]12CC/C(=N\N)C[C@@H]1CC[C@@H]1[C@@H]2CC[C@]2(C)/C(=N/N)CC[C@@H]12` ?
inactive

What did the test return for `C[C@@H]1COCCN1c1nc(-c2cnc(N)cc2C(F)F)nc(N2[C@H](C)COC[C@@H]2C)n1` ?
active

###

test system: ACHN renal; assay: NCI tumour cell line growth inhibition, 48 h
measured_endpoint: TGI

According to the records, this compound `CO/C(=N\N=C\c1ccc(Cl)cc1Cl)c1ccncc1` displays TGI of > 10 µM

The value of TGI measured for the compound CC(C)(C)OC(=O)NC(Cc1ccc(O)cn1)C(N)=O (centres undefined) turned out to be > 100 µM

Recorded result, `Cc1ccc(NC(=S)Nc2c(C)n(C)n(-c3ccccc3)c2=O)cc1` , TGI: > 100 µM

The value of TGI measured for the compound Nc1nc2c(c3ncccc13)C(c1ccc(Cl)c(Cl)c1)Cc1ncccc1-2 (centres undefined) turned out to be 16 µM

Note to self: TGI recorded for `Cn1c(=O)c(Oc2cccc(F)c2)cc2cnc(NC3CCOCC3)nc21` was > 25 µM

Briefly, TGI measured for `CCN(CC)c1ccc(N=C2C=C(C(=O)Nc3ccc(S(C)(=O)=O)cc3)C(=O)c3ccccc32)c(C)c1` : > 100 µM

Short answer for `OCc1cccc(-c2ccc3ncc(-c4nc(NC5CC5)ncc4F)n3c2)c1` : TGI was 1.24 µM

The recorded TGI for CCCCCCCCCCCCCCCC(=O)OCC1OC(n2cnc3c(=S)nc(N)[nH]c32)C(OC(=O)CCCCCCCCCCCCCCC)C1OC(=O)CCCCCCCCCCCCCCC (centres undefined) is > 50 µM

response.value for `Nc1ccccc1NC(=O)CCCCCCC(=O)Nc1ccc2c(c1)/C(=C/c1ccc[nH]1)C(=O)N2` (field: TGI) = > 100 µM

###

system: RXF-631 renal; experiment: NCI tumour cell line growth inhibition, 48 h
Kindly state TGI for each of the entries shown.

Param item: `CCOCC(=O)N[C@H]1CCc2cc(OC)c(OC)c(OC)c2-c2ccc(SC)c(=O)cc21` ; param system: RXF-631 renal; output TGI: > 46.4 µM

Observed TGI, RXF-631 renal, `N#CCCN(CCC#N)c1ccc(/C=C2\N=C(COc3ccc(Cl)cc3Cl)OC2=O)cc1` : > 100 µM

Here `Oc1ccc2occ3c2c1CCC3` was tested on RXF-631 renal, and its TGI came to > 100 µM

Reading of TGI for CCOC(=O)C(=O)C1C(=O)Nc2ccccc21 (stereo not given) with RXF-631 renal: > 100 µM

Reported TGI (RXF-631 renal) for entry `CS(=O)(=O)OCCN1CCN(C(=O)c2cccc3c(Nc4ccc(S(N)(=O)=O)cc4)c4ccccc4nc23)CC1` is > 100 µM
